Tested on: Chloroform-Induced Arrhythmia
procedure_summary: Activity on Chloroform-Induced Arrhythmia (ventricular fibrillation)
Type: in vivo, ICR-strain mice
measurement_context: Mus musculus, po, 30 mg/kg orally; ICR mice, 10 per group; chloroform vapor; read-out: Percent VF inhibition
Where a name gives a salt, the structure may show the parent alone.
measured_endpoint: inhibition in vivo at 30 mg/kg (%)
Report only the number, with the unit % understood.

Tell me reported inhibition in vivo at 30 mg/kg for C=CCOc1ccc(-c2ccccn2)cc1NC(=O)CC(C)N (centres unmarked) [Example 30, dihydrochloride] , tested with Chloroform-Induced Arrhythmia. 70

Continue with COc1ccc(-c2ncc[nH]2)c(NC(=O)CC(C)N)c1 (centres unmarked) 80

Continue with Cc1ccc(-c2ccccn2)c(NC(=O)CC(C)N)c1 (centres unmarked) 90

Request: COc1ccc(C(O)c2cccnc2)cc1NC(=O)CC(C)N (centres unmarked) [Example 56, hydrochloride] 70

Can you handle COc1ccc(-c2nc3cccnc3[nH]2)c(NC(=O)CC(C)N)c1 (centres unmarked) next? 80

Then what about the molecule CCOc1ccc(-c2cccnc2)c(NC(=O)CC(C)N)c1.Cl.Cl (centres unmarked) [Example 33, dihydrochloride] ? 80

And for CC(N)CC(=O)Nc1c(OCC(F)(F)F)cccc1-c1cccnc1 (centres unmarked) ? 70

Same thing, different molecule: C=CCOc1ccc(-c2cccnc2)c(NC(=O)CC(C)N)c1 (centres unmarked) 70

Also check CC(N)CC(=O)Nc1cc(OCC(F)(F)F)ccc1-c1cccnc1 (centres unmarked) [Example 20, monohydrochloride] 100

Further, for COc1ccc(-c2ccccn2)c(NC(=O)CC(C)N)c1 (centres unmarked) ? 80

Please do the same for Cc1cccc(C)c1OCC(C)N (centres unmarked) [mexiletine, reference compound] as well. 50
